Tested on: Catalepsy in rats
METHOD: Cataleptic effect in rats (Morpurgo)
Assay type: in vivo
PARTICULARS: p.o.
Field: Catalepsy in rats Minimal effective dose [MED]. Provide a value for each of the compounds that follow.

Req: Give Catalepsy in rats Minimal effective dose [MED] (Catalepsy in rats) of the following compound: COc1cc2c(cc1OC)C(C=Cc1ccc(N(C)C)cc1)=NN=C(C)C2 [Example 4]
Resp: >100 mg/kg

Req: Give Catalepsy in rats Minimal effective dose [MED] (Catalepsy in rats) of the following compound: CN(C)CCCN1c2ccccc2Sc2ccc(Cl)cc21 [chlorpromazine, reference compound]
Resp: 20 mg/kg

Req: Give Catalepsy in rats Minimal effective dose [MED] (Catalepsy in rats) of the following compound: COc1cc2c(cc1OC)C(C=Cc1ccccc1F)=NN=C(C)C2 [Example 10]
Resp: >100 mg/kg

Req: Give Catalepsy in rats Minimal effective dose [MED] (Catalepsy in rats) of the following compound: COc1cc2c(cc1OC)C(C=Cc1ccc3c(c1)OCO3)=NN=C(C)C2 [Example 67]
Resp: >100 mg/kg

Req: Give Catalepsy in rats Minimal effective dose [MED] (Catalepsy in rats) of the following compound: COc1cc2c(cc1OC)C(C=Cc1cc(OC)c(OC)c(OC)c1)=NN=C(C)C2 [Example 6]
Resp: >100 mg/kg

Req: Give Catalepsy in rats Minimal effective dose [MED] (Catalepsy in rats) of the following compound: COc1cc2c(cc1OC)C(c1ccc(N)cc1)=NN=C(C)C2 [nerisopam, reference compound]
Resp: 60 mg/kg

* * *

Field: pKi. Provide a value for each of the compounds that follow.
ASSAYED_SYSTEM: homophthalazine binding site
METHOD: Displacement of 3H-girisopam from the homophthalazine binding site in rat brain striatal membrane preparation
PARTICULARS: displacing 5 nM 3H-girisopam
Conceptually, pKi converts a concentration in mol/L into minus its log10.

Req: # get_value(readout='pKi', item= COc1cc2c(cc1OC)C(C=Cc1ccc(C#N)cc1)=NN=C(C)C2 )
Resp: 7.74

Req: # get_value(readout='pKi', item= COc1cc2c(cc1OC)C(C=Cc1ccc([N+](=O)[O-])cc1)=NN=C(C)C2 )
Resp: 7.77

Req: # get_value(readout='pKi', item= COc1cc2c(cc1OC)C(C=Cc1ccc3c(c1OC)OCO3)=NN=C(C)C2 )
Resp: 8.10

Req: # get_value(readout='pKi', item= COc1cc2c(cc1OC)C(C=Cc1ccc(Cl)c(N)c1)=NN=C(C)C2 )
Resp: 8.00

Req: # get_value(readout='pKi', item= COc1cc2c(cc1OC)C(C=Cc1c[nH]c3ccccc13)=NN=C(C)C2 )
Resp: 8.30

Req: # get_value(readout='pKi', item= COc1cc2c(cc1OC)C(C=Cc1cccs1)=NN=C(C)C2 )
Resp: 7.89

Req: # get_value(readout='pKi', item= COc1cc2c(cc1OC)C(C=Cc1ccc(NC(C)=O)cc1)=NN=C(C)C2 )
Resp: 8.30

Req: # get_value(readout='pKi', item= COc1cc2c(cc1OC)C(C=Cc1cccc(OC(C)C)c1)=NN=C(C)C2 )
Resp: 7.96

Req: # get_value(readout='pKi', item= COc1ccc(C=CC2=NN=C(C)Cc3cc(OC)c(OC)cc32)cc1OC )
Resp: 7.96

* * *

ASSAYED_SYSTEM: homophthalazine binding site
METHOD: Displacement of 3H-girisopam from the homophthalazine binding site in rat brain striatal membrane preparation
PARTICULARS: displacing 5 nM 3H-girisopam
MEASURE: pKi
Conceptually, pKi converts a concentration in mol/L into minus its log10.

Req: # get_value(readout='pKi', item= COc1cc2c(cc1OC)C(C=Cc1cccc(Cl)c1)=NN=C(C)C2 [Example 51] )
Resp: 7.72

Req: # get_value(readout='pKi', item= COc1cc2c(cc1OC)C(C=Cc1ccc(Cl)c(NC(C)=O)c1)=NN=C(C)C2 [Example 85] )
Resp: 7.85

Req: # get_value(readout='pKi', item= COc1cc2c(cc1OC)C(C=Cc1ccc(N)cc1)=NN=C(C)C2 [Example 73] )
Resp: 7.96

Req: # get_value(readout='pKi', item= COc1cc2c(cc1OC)C(C=Cc1ccc3c(c1)OCO3)=NN=C(C)C2 [Example 67] )
Resp: 8.30

Req: # get_value(readout='pKi', item= COc1cc2c(cc1OC)C(C=Cc1ccc(N(C)C)cc1)=NN=C(C)C2 [Example 4] )
Resp: 7.96

* * *

Field: acute toxicity (dead/treated animals). Provide a value for each of the compounds that follow.
Test system: mice
METHOD: Acute toxicity (dead/treated animals) in the Irwin test
Format: in vivo
PARTICULARS: 300 mg/kg i.p.

Req: # get_value(readout='acute toxicity (dead/treated animals)', item= COc1cc2c(cc1OC)C(C=Cc1ccccc1F)=NN=C(C)C2 )
Resp: 0/6

Req: # get_value(readout='acute toxicity (dead/treated animals)', item= COc1cc2c(cc1OC)C(C=Cc1ccc(Cl)c(NC(C)=O)c1)=NN=C(C)C2 )
Resp: 0/5

Req: # get_value(readout='acute toxicity (dead/treated animals)', item= COc1cc2c(cc1OC)C(C=Cc1ccc3c(c1)OCO3)=NN=C(C)C2 )
Resp: 0/6
